meta.source: PubChem BioAssay AID1159580

PROTOCOL: chemical genetic growth profiling, strain panel (AID 1159580);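 note: tested at 20 µM; growth read once vehicle control cultures reached saturation at 30 °C; 1 = growth at the plate median or of vehicle wells; lower values mean less growth of the strain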
TEST_CONTEXT: S. cerevisiae deletion strains, growth OD, locus YDL192W, strain arf1, hits give low values
Screen size: about 5,500 compounds; about 2,000 (36%) were called active. Not shown: some 18% with an inconclusive outcome. Some of the results follow.
Reported normalized growth by item:
Enter a number only.

COP(=O)(NC(C)=O)SC (stereo not drawn): 0.996

Briefly, normalized growth measured for `O=C1c2ccccc2C(=O)c2ccccc21` : 0.99

Briefly, normalized growth measured for `O[C@H]1[C@H](O)[C@@H](O)C2OC[C@H]1O2` : 0.986

Briefly, normalized growth measured for `COc1ccc(-c2c(OC)c3c(OC)c4c(cc3oc2=O)OC(C)(C)C=C4)cc1` : 1.08

Briefly, normalized growth measured for CC(=O)O[C@@H]1C2CC[C@@H]3C1(C[C@@H](O)[C@@]1(O)[C@@H](C[C@H](O)C1(C)C)[C@]3(C)O)C[C@@]2(C)O (stereo partly drawn) : 0.992

Briefly, normalized growth measured for CC(NC(C)(C)C)C(=O)c1cccc(Cl)c1 (stereo not drawn) : 1.03

Briefly, normalized growth measured for `CCCCCC/C=C\CCCCCCCc1cccc(O)c1C(=O)O` : 1

Briefly, normalized growth measured for `C[C@]12CC[C@@H](O)C[C@H]1CCc1ccccc12` : 0.999

Briefly, normalized growth measured for `COc1cc(O)c2c(c1)C(=O)c1cc(C)cc(O)c1C2=O` : 1.01

Briefly, normalized growth measured for `O=C(N[C@@H](CO)[C@H](O)c1ccc([N+](=O)[O-])cc1)C(Cl)Cl` : 1.01

Briefly, normalized growth measured for `CC(C)N=C(N)N=C(N)Nc1ccc(Cl)cc1` : 1.01

Briefly, normalized growth measured for CNC(C)[C@@H]1CC[C@@H](N)[C@@H](OC2[C@@H](N)C[C@@H](N)[C@H](OC3OC[C@](C)(O)[C@H](NC)[C@H]3O)[C@H]2O)O1 (stereo partly drawn) : 1.04

Briefly, normalized growth measured for `CCCc1ncc(C[n+]2ccccc2C)c(N)n1` : 0.999
